# system.under.test: UniProt P11229
# Sequence (P11229 whole entry): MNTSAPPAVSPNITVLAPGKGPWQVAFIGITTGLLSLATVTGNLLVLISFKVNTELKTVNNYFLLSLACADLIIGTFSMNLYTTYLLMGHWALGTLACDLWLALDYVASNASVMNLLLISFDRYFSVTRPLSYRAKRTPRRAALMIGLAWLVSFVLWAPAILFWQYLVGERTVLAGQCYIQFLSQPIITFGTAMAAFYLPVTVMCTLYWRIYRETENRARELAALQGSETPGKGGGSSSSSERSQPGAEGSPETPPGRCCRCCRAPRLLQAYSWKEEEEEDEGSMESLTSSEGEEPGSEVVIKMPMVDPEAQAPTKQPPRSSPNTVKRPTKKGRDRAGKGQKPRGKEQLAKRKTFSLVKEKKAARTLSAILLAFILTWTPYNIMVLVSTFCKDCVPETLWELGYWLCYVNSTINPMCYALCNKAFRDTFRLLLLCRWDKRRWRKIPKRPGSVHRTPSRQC
# assay.summary: Alphascreen Surefire phospho-ERK1/2 functional assay, M1
# Format: cell-based
# test.settings: CHO, read-out: % Emax cf. ACh, M1
reported.endpoint: Emax (%)

1. O=C1CCON1CCCCCC1CCN(CCCN2C(=O)CCc3ccccc32)CC1
2. O=C1CCON1CCCCC1CCN(CCCN2C(=O)CCc3ccccc32)CC1
Returns: the argument ( 1 or 2 ) having the larger Emax. // caller expects the label of the chosen entry 2

----------
# system.under.test: UniProt:P08172
# Sequence (P08172 whole entry): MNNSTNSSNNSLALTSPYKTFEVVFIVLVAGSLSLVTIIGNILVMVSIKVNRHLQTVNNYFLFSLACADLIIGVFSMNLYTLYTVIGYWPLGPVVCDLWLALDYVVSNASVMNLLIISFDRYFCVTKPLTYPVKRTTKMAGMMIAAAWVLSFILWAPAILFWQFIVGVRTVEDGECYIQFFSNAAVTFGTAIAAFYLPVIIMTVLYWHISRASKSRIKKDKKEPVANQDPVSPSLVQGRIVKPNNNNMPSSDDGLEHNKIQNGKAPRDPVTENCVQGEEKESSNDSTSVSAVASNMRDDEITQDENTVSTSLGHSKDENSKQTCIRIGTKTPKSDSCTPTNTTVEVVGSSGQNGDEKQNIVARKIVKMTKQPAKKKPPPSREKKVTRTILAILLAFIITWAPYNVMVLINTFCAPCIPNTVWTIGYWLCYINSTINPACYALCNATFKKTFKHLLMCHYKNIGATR
# assay.summary: Alphascreen Surefire phospho-ERK1/2 functional assay, M2
# Type: cell-based
# test.settings: CHO, read-out: % Emax cf. ACh, M2
reported.endpoint: Emax (%)

Solved cases (6 shown):
| compound | Emax (%) |
| --- | --- |
| O=C1CCc2ccccc2N1CCCN1C2CCC1CC(CCCOC1=NOCC1)C2 (stereo not shown) [Example 4] | 29 |
| O=C1CCc2ccccc2N1CCCN1[C@@H]2CC[C@H]1C[C@@H](OCCOC1=NOCC1)C2 [Example 5] | 16 |
| O=C1CCON1CCCCC1CCN(CCCN2C(=O)CCc3ccccc32)CC1 [Example 11] | 4 |
| c1ccc2c(c1)CCCN2CCCN1C2CCC1CC(CCCOC1=NOCC1)C2 (stereo not shown) [Example 9] | 28 |
| O=C1CCc2ccccc2N1CCCN1[C@@H]2CC[C@H]1CN(CCCOC1=NOCC1)C2 [Example 6] | 6 |
| O=C1CCc2ccccc2N1CCCN1CCC(CCCCOC2=NOCC2)CC1 [Example 2] | 3 |

I. O=C1CCON1CCCCCC1CCN(CCCN2C(=O)CCc3ccccc32)CC1 [Example 12]
II. O=C1COc2cc(F)ccc2N1CCCN1CCC(CCCCOC2=NOCC2)CC1 [Example 8]
III. O=C1CCc2ccccc2N1CCCN1CCC(CCOC2=NOCC2)CC1 [Example 1]
Order the items by recorded Emax; the first position goes to the largest value. Answer by listing the labels in the requested order. II, I, III
(II: 4%, I: 2%, III: 1%)

----------
# system.under.test: human muscarinic M3 receptor (Homo sapiens, UniProt P20309)
# Construct: expressed in transfected cells
# Sequence (P20309 whole entry): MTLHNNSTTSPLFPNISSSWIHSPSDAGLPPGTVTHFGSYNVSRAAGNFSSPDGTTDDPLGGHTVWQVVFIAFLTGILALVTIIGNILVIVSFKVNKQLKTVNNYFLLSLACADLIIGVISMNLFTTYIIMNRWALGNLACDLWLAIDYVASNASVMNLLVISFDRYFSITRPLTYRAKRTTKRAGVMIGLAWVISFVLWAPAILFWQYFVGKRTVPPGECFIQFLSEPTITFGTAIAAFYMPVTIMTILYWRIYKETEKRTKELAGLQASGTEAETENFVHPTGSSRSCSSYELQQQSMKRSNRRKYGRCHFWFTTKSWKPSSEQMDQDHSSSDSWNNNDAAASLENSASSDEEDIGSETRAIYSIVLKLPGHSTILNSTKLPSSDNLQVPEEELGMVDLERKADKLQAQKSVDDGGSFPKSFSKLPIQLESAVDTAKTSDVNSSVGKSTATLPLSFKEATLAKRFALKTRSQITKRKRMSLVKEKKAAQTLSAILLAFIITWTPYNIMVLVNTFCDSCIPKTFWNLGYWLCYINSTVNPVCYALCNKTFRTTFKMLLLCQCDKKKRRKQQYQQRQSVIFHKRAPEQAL
# assay.summary: Alphascreen Surefire phospho-ERK1/2 functional assay, M3
# Assay type: cell-based
# test.settings: CHO, read-out: % Emax cf. ACh, M3
reported.endpoint: Emax (%)

| molecule | system.under.test | unit.descriptor | Emax |
| --- | --- | --- | --- |
| O=C1CCc2ccccc2N1CCCN1[C@@H]2CC[C@H]1CN(CCCOC1=NOCC1)C2 [Example 6] | human muscarinic M3 receptor (Homo sapiens, UniProt P20309) | % | 0 |
| O=C1CCc2ccccc2N1CCCN1CCC(CCCCOC2=NOCC2)CC1 [Example 2] | human muscarinic M3 receptor (Homo sapiens, UniProt P20309) | % | 7 |
| O=C1CCc2ccccc2N1CCCN1[C@@H]2CC[C@H]1C[C@@H](OCCOC1=NOCC1)C2 [Example 5] | human muscarinic M3 receptor (Homo sapiens, UniProt P20309) | % | 46 |
| c1ccc2c(c1)CCCN2CCCN1C2CCC1CC(CCCOC1=NOCC1)C2 (stereo not shown) [Example 9] | human muscarinic M3 receptor (Homo sapiens, UniProt P20309) | % | 21 |
| O=C1CCc2ccccc2N1CCCN1C2CCC1CC(CCCOC1=NOCC1)C2 (stereo not shown) [Example 4] | human muscarinic M3 receptor (Homo sapiens, UniProt P20309) | % | 0 |

1. O=C1CCc2ccccc2N1CCCN1CCC(CCOC2=NOCC2)CC1 [Example 1]
2. O=C1CCON1CCCCC1CCN(CCCN2C(=O)CCc3ccccc32)CC1 [Example 11]
3. O=C1COc2cc(F)ccc2N1CCCN1CCC(CCCCOC2=NOCC2)CC1 [Example 8]
4. O=C1CCON1CCCCCC1CCN(CCCN2C(=O)CCc3ccccc32)CC1 [Example 12]
List items by Emax in falling order. # the answer lists labels in the order requested 2, 3, 4, 1
(2: 7%, 3: 3%, 4: 1%, 1: 0%)
